This collection of values is drawn from paper PMC8536830.

Molecular target: LGC-50:MOD-1(363-397) (Caenorhabditis elegans)
Sequence (P41849 with tags, fused parts or gaps): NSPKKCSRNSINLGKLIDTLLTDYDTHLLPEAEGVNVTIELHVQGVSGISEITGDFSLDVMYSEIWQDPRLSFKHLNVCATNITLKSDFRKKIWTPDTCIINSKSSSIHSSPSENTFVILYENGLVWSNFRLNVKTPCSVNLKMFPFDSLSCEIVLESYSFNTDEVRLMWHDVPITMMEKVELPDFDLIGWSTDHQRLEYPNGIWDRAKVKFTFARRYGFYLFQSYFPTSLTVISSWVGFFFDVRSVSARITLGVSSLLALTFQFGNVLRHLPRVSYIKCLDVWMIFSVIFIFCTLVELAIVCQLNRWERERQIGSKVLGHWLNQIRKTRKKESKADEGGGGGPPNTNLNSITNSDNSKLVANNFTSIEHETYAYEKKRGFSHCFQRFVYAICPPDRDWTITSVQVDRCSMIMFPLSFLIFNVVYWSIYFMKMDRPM
Sequence (Q9GQ00 363-397 partner): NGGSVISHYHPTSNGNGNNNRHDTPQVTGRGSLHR
Assay: Two-electrode voltage clamp, 5-HT evoked dose response, LGC-50:MOD-1(363-397) chimera
Details: Xenopus oocytes, TEVC
propertyMeasured: EC50 (µM)

# molecule, propertyMeasured, unitAnnotation, readoutNumber
measured = [
    ("NCCc1c[nH]c2ccc(O)cc12 [5-HT, serotonin]", "EC50", "µM", 0.98),
]

###

Target: LGC-50 (Caenorhabditis elegans, UniProt P41849)
Construct: lgc-50 ORF F […]
Sequence (P41849 20-491): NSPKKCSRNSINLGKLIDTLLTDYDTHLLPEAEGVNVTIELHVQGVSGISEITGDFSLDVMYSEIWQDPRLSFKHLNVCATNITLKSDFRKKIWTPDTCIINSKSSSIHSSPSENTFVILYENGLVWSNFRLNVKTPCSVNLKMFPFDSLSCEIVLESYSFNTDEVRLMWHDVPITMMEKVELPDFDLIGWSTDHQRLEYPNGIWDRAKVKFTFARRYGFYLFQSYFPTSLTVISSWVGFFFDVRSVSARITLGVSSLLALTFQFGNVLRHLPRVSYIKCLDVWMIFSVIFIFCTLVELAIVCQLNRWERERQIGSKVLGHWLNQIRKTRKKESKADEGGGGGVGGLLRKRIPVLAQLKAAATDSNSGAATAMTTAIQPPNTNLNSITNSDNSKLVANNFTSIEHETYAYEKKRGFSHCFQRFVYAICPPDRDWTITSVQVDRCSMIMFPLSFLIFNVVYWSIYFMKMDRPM
Assay: Two-electrode voltage clamp, agonist-evoked currents in Xenopus oocytes expressing LGC-50
Settings: Xenopus oocytes, TEVC; current normalized to Imax, Hill equation with variable slope; read-out: EC50, agonist-evoked dose response, LGC-50

# testSmiles, EC50
rows = [
    ("NCCc1c[nH]c2ccc(O)cc12", "940 nM"),
]

###

Target: LGC-52 (Caenorhabditis elegans)
Sequence (Q9NA62 entry or part of it): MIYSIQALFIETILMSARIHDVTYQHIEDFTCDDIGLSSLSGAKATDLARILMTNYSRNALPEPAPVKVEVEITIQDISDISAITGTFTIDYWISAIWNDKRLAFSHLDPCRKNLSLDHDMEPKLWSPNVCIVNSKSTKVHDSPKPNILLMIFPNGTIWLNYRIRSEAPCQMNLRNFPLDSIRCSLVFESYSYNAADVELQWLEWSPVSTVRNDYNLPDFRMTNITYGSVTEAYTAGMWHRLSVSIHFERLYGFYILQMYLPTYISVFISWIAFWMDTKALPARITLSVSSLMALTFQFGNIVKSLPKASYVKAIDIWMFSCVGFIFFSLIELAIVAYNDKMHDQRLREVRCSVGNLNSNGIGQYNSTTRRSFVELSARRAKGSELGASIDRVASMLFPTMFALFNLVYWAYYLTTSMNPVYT
Test: Two-electrode voltage clamp, agonist-evoked currents in Xenopus oocytes expressing LGC-52
Conditions: Xenopus oocytes, TEVC; current normalized to Imax, Hill equation with variable slope; read-out: EC50, agonist-evoked dose response, LGC-52

# testSmiles, EC50 / µM
rows = [
    ("NCCc1ccc(O)c(O)c1", 0.51),
    ("NCCc1ccc(O)cc1", 54),
]
